# condition.context: 303.15 K; 101.33 kPa; Liquid; Vibrating tube method
# label = fulfilled if mass density >= 1000 kg/m3 else not fulfilled

molecule	class.assignment
CCCC[P+](CC)(CC)CC.Cc1ncc([N+](=O)[O-])[n-]1 [butyltriethylphosphonium 2-methyl-5-nitroimidazolide]	fulfilled
CCCCCCSC(N(C)C)=[N+](C)C.O=S(=O)([N-]S(=O)(=O)C(F)(F)F)C(F)(F)F	fulfilled
CCCC[P+](CC)(CC)CC.O=[N+]([O-])c1cn[n-]c1 [butyltriethylphosphonium 4-nitropyrazolide]	fulfilled
CCC[n+]1ccn(C)c1C.O=[N+]([O-])c1cn[n-]c1 [1,2-dimethyl-3-propylimidazolium 4-nitropyrazolide]	fulfilled
CCCCCCCCSC(N(C)C)=[N+](C)C.O=S(=O)([N-]S(=O)(=O)C(F)(F)F)C(F)(F)F	fulfilled

Lookup: Given `CCCCCC[n+]1ccn(C)c1.O=S(=O)([N-]S(=O)(=O)C(F)(F)F)C(F)(F)F` , state whether its mass density is at least 1000 kg/m3.
Found: fulfilled

Lookup: Quick one: CCCCCCCC[P+](CC)(CC)CC.O=S(=O)([N-]S(=O)(=O)C(F)(F)F)C(F)(F)F [triethyloctylphosphonium bis(trifluoromethylsulfonyl)imide]
Found: fulfilled

Lookup: Repeat with CCCCCCC[P+](CC)(CC)CC.O=[N+]([O-])c1cn[n-]c1 [triethylheptylphosphonium 4-nitropyrazolide]
Found: fulfilled

Lookup: Proceed to CCCC[n+]1cccn1C.O=S(=O)([N-]S(=O)(=O)C(F)(F)F)C(F)(F)F [1-butyl-2-methylpyrazolium bis(trifluoromethylsulfonyl)imide]
Found: fulfilled

Lookup: Try this molecule next: CCCCCCCCCCCCCC[P+](CCCCCC)(CCCCCC)CCCCCC.Clc1nc[n-]c1Cl [trihexyl(tetradecyl)phosphonium 4,5-dichloroimidazolide]
Found: not fulfilled

Lookup: Proceed to CCC=Cn1cc[n+](C)c1C.O=[N+]([O-])c1cn[n-]c1 [1-but-1-enyl-2,3-dimethylimidazolium 4-nitropyrazolide]
Found: fulfilled

Lookup: Repeat for the following molecule: CCCCCCCCCCCCCC[P+](CCCCCC)(CCCCCC)CCCCCC.Cc1ncc([N+](=O)[O-])[n-]1 [trihexyl(tetradecyl)phosphonium 2-methyl-5-nitroimidazolide]
Found: not fulfilled

Lookup: Please give the result for CCCCCCn1cc[n+](C)c1.O=[N+]([O-])c1cn[n-]c1 [1-hexyl-3-methylimidazolium 4-nitropyrazolide] too.
Found: fulfilled

###

# condition.context: 288.15 K; 101.33 kPa; Liquid; Vibrating tube method
assay.endpoint: mass density (kg/m3)
Field: numeric (kg/m3). Do not append units.

Example entries begin here.
compound	observed.value
CCCCCCC[P+](CC)(CC)CC.O=[N+]([O-])c1cn[n-]c1 [triethylheptylphosphonium 4-nitropyrazolide]	1044
CCCCCCn1cc[n+](C)c1.N#Cc1ccc[n-]1 [1-hexyl-3-methylimidazolium 2-cyanopyrrolide]	1027.9
CCCCCCCCCCCCCC[P+](CCCCCC)(CCCCCC)CCCCCC.Clc1nc[n-]c1Cl [trihexyl(tetradecyl)phosphonium 4,5-dichloroimidazolide]	970.8

Moving on to the next compound.
Lookup: Which mass density reading was recorded for the compound CCCC[P+](CC)(CC)CC.Cc1ncc([N+](=O)[O-])[n-]1 [butyltriethylphosphonium 2-methyl-5-nitroimidazolide] ?
Found: 1071.3

###

# condition.context: 298.15 K; 101.33 kPa; Liquid; Cone and plate viscometry
Entry flag: class 1 if viscosity reaches 300 mPa·s; class 0 if it does not.

Before answering, review these 2 worked examples.
In [3]: df
Out[3]:
                                   compound  class_assignment
0  CCCC[P+](CC)(CC)CC.O=[N+]([O-])c1cn[n-]c1 [butyltriethylphosphonium 4-nitropyrazolide]           class 0
1  CCCCCCCC[P+](CC)(CC)CC.Cc1ncc([N+](=O)[O-])[n-]1 [triethyloctylphosphonium 2-methyl-5-nitroimidazolide]           class 1

Lookup: Can CCCCCCCCCCCCCC[P+](CCCCCC)(CCCCCC)CCCCCC.Clc1nc[n-]c1Cl [trihexyl(tetradecyl)phosphonium 4,5-dichloroimidazolide] be said to have viscosity at or above 300 mPa·s?
Found: class 1

Lookup: Now the same for `CCCC[S+]1CCCC1.O=S(=O)([N-]S(=O)(=O)C(F)(F)F)C(F)(F)F`
Found: class 0

Lookup: Same read-out for CCCCCCCCCCCCCC[P+](CCCCCC)(CCCCCC)CCCCCC.O=[N+]([O-])c1cn[n-]c1 [trihexyl(tetradecyl)phosphonium 4-nitropyrazolide] ?
Found: class 1
